Would you mind telling me the reported IC50 of each entry?
Target: human EHMT1 982-1266 (Homo sapiens, UniProt Q9H9B1)
Sequence (Q9H9B1 982-1266): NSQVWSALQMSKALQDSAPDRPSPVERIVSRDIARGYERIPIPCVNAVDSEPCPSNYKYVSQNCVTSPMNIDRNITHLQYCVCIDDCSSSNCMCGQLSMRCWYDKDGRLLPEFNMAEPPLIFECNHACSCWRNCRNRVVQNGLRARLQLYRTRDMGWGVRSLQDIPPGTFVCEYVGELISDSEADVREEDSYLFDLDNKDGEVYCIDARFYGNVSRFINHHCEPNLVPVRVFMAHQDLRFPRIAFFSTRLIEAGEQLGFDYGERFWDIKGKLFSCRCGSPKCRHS
Experiment: EHMT1 enzyme assay on histone peptide substrate (3H-SAM SPA)
Settings: EHMT1 IC50, recombinant human EHMT1 982-1266, histone peptide substrate

Q) Give IC50 for CNc1cc(Nc2cc3c(c(C4=CCN(C)CCC4)c2F)OCCC3)nc(C)c1F [Compound 236] tested on human EHMT1 982-1266 (Homo sapiens, UniProt Q9H9B1).
A) < 100 nM

Q) Give IC50 for CNc1cc(C)nc(Nc2cc3c(c(C4=CCNC(C)CC4)c2Cl)OCCO3)n1 (single isomer, unassigned) [Compound 161] tested on human EHMT1 982-1266 (Homo sapiens, UniProt Q9H9B1).
A) < 100 nM

Q) Give IC50 for CNc1cc(C)nc(Nc2cc3c(c(N4C[C@H]5CNC[C@H]5C4)c2)OCCC3)n1 [Compound 338] tested on human EHMT1 982-1266 (Homo sapiens, UniProt Q9H9B1).
A) 100 to 500 nM

Q) Give IC50 for CNc1ccnc(Nc2cc3c(c(C4=CCNCCC4)c2)OCO3)n1 [Compound 336] tested on human EHMT1 982-1266 (Homo sapiens, UniProt Q9H9B1).
A) < 100 nM

Q) Give IC50 for CNc1cc(C)nc(Nc2cc3c(c(C4=CCNCCC4)c2)OCC3)n1 [Compound 110] tested on human EHMT1 982-1266 (Homo sapiens, UniProt Q9H9B1).
A) < 100 nM

Q) Give IC50 for CNc1cc(C)nc(Nc2cc3c(c(C4=CCNCCC4)c2F)OCC3(C)C)n1 [Compound 178] tested on human EHMT1 982-1266 (Homo sapiens, UniProt Q9H9B1).
A) < 100 nM

Q) Give IC50 for CNc1cc(C)nc(Nc2cc3c(c(C4=CCN(C)C(C)CC4)c2F)OCC3)n1 (centres unmarked) [Compound 204] tested on human EHMT1 982-1266 (Homo sapiens, UniProt Q9H9B1).
A) < 100 nM

Q) Give IC50 for Cc1cc(NCC2CCOCC2)nc(Nc2cc3c(c(C4=CCNCCC4)c2)OCC3)n1 [Compound 308] tested on human EHMT1 982-1266 (Homo sapiens, UniProt Q9H9B1).
A) < 100 nM

Q) Give IC50 for [2H]Cc1nc(Nc2cc3c(c(C4=CCNCCC4)c2F)OCC3)nc(NCC([2H])([2H])[2H])c1F [Compound 226] tested on human EHMT1 982-1266 (Homo sapiens, UniProt Q9H9B1).
A) < 100 nM

Q) Give IC50 for COCCCNc1cc(C)nc(Nc2cc3c(c(C4=CCN(C)CCC4)c2)OCC3)c1 [Compound 295] tested on human EHMT1 982-1266 (Homo sapiens, UniProt Q9H9B1).
A) 100 to 500 nM

Q) Give IC50 for CNc1cc(C)nc(Nc2cc3c(c(C4=CCN(C)CCC4)c2)OCO3)n1 [Compound 141] tested on human EHMT1 982-1266 (Homo sapiens, UniProt Q9H9B1).
A) < 100 nM

Q) Give IC50 for CNc1cc(C)nc(Nc2cc(OCCCN3CCCC3)c3c(c2)OCCO3)n1 [Compound 122] tested on human EHMT1 982-1266 (Homo sapiens, UniProt Q9H9B1).
A) 100 to 500 nM

Q) Give IC50 for CNc1cc(C2CC2)nc(Nc2cc3c(c(C4=CCN(C)CCC4)c2)OCC3)n1 [Compound 314] tested on human EHMT1 982-1266 (Homo sapiens, UniProt Q9H9B1).
A) 100 to 500 nM

Q) Give IC50 for CNc1cc(C)nc(Nc2cc3c(c(C4=CCN(C)CC(O)C4)c2F)OCC3)n1 (centres unmarked) [Compound 180] tested on human EHMT1 982-1266 (Homo sapiens, UniProt Q9H9B1).
A) < 100 nM

Q) Give IC50 for [2H]C([2H])([2H])Nc1cc(C)nc(Nc2cc3c(c(C4=CCNCCC4)c2)OCC3)n1 [Compound 306] tested on human EHMT1 982-1266 (Homo sapiens, UniProt Q9H9B1).
A) < 100 nM

Q) Give IC50 for CNc1cc(C)nc(Nc2cc3c(c(C4=CCNC(C)CC4)c2Cl)OCC3)n1 (single isomer, unassigned) [Compound 374-a] tested on human EHMT1 982-1266 (Homo sapiens, UniProt Q9H9B1).
A) 500 to 2000 nM

Q) Give IC50 for Cc1cc(NCC2CCCO2)nc(Nc2cc3c(c(C4=CCNCCC4)c2)OCC3)n1 (centres unmarked) [Compound 294] tested on human EHMT1 982-1266 (Homo sapiens, UniProt Q9H9B1).
A) < 100 nM

* * *

Target: human EHMT2 913-1193 (Homo sapiens, UniProt Q96KQ7)
Sequence (Q96KQ7 913-1193): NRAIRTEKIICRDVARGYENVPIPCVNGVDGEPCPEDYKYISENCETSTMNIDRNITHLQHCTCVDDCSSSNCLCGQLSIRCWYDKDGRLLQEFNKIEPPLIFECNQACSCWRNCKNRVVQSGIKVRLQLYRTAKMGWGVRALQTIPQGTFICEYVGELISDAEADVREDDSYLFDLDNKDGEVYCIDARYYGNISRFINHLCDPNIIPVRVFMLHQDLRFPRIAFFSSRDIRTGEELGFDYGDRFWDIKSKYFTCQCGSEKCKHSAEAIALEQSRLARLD
Assay: EHMT2 enzyme assay on histone peptide substrate (3H-SAM SPA)
Conditions: EHMT2 IC50, recombinant human EHMT2 913-1193, histone peptide substrate
endpointLabel: IC50

Q) Read off the recorded IC50 for CNc1cc(C)nc(Nc2cc(OCCCN3CCCC3)c3c(c2)N(Cc2ccccc2)CCO3)n1
A) 500 to 2000 nM

Q) Read off the recorded IC50 for CNc1nc(Nc2cc3c(c(C4=CCNCCC4)c2)OCC3)nc(C)c1C
A) < 100 nM

Q) Read off the recorded IC50 for CNc1cc(C)nc(Nc2cc3c(c(C4=CCNCCC4)c2F)OCC3C)n1 (single isomer, unassigned)
A) < 100 nM

Q) Read off the recorded IC50 for CNc1cc(C(C)C)nc(Nc2cc3c(c(C4=CCNCCC4)c2)OCC3)n1
A) < 100 nM

Q) Read off the recorded IC50 for [2H]Cc1cc(NC)nc(Nc2cc3c(c(C4=CCNCCC4)c2)OCC3)n1
A) < 100 nM

Q) Read off the recorded IC50 for CNc1cc(C)nc(Nc2cc3c(c(C4=CCNC[C@@H](O)C4)c2F)OC[C@H]3C)n1 (stereo in doubt)
A) < 100 nM

Q) Read off the recorded IC50 for [2H]C([2H])([2H])CNc1cc(C)nc(Nc2cc3c(c(C4=CCNCCC4)c2)OCCC3)n1
A) < 100 nM

Q) Read off the recorded IC50 for Cc1cc(NCC2CCOCC2)nc(Nc2cc3c(c(C4=CCN(C)CCC4)c2)OCC3)n1
A) 100 to 500 nM

* * *

Would you mind telling me the reported pIC50 of each entry?
Biological target: human EHMT1 982-1266 (Homo sapiens)
Test: EHMT1 enzyme assay on histone peptide substrate (3H-SAM SPA)
Settings: EHMT1 IC50, recombinant human EHMT1 982-1266, histone peptide substrate
pIC50: −log10 of the molar value.

Q) Read off the recorded pIC50 for CNc1nc(Nc2cc3c(c(C4=CCNCCC4)c2F)OCO3)nc(C)c1F
A) 6.30 to 7.00

Q) Read off the recorded pIC50 for CNc1cc(C)nc(Nc2cc3c(c(C4=CCNCC(O)C4)c2F)OCC3)n1 (centres unmarked) [Compound 179]
A) > 7.00

Q) Read off the recorded pIC50 for CNc1cc(C)nc(Nc2cc3c(c(C4=CCNCCC4)c2Cl)OCC3)n1
A) > 7.00

Q) Read off the recorded pIC50 for [2H]C([2H])([2H])CNc1cc(C)nc(Nc2cc3c(c(C4=CCNCCC4)c2)OCCC3)n1
A) > 7.00

Q) Read off the recorded pIC50 for COCCNc1cc(C)nc(Nc2cc3c(c(C4=CCNCCC4)c2)OCC3)c1
A) 6.30 to 7.00

Q) Read off the recorded pIC50 for CNc1cc(Nc2cc3c(c(C4=CCNCCC4)c2F)OCO3)nc(C)c1F
A) > 7.00

Q) Read off the recorded pIC50 for CNc1cc(C)nc(Nc2cc3c(c(C4=CCN(C)CCC4)c2)CCO3)n1
A) 6.30 to 7.00

Q) Read off the recorded pIC50 for Cc1cc(NC2COC2)cc(Nc2cc3c(c(C4=CCNCCC4)c2)OCC3)n1
A) 6.30 to 7.00

Q) Read off the recorded pIC50 for CNc1cc(C)nc(Nc2cc3c(c(C4=CCNCCC4)c2)CCO3)n1
A) 6.30 to 7.00

Q) Read off the recorded pIC50 for CNc1cc(C)nc(Nc2cc3c(c(C4=CCNCC(O)C4)c2C)OCC3)n1 (single isomer, unassigned) [Compound 370]
A) > 7.00

Q) Read off the recorded pIC50 for [2H]C([2H])([2H])CNc1cc(C)nc(Nc2cc3c(c(C4=CCNCCC4)c2)OCO3)n1
A) > 7.00

Q) Read off the recorded pIC50 for COCCNc1cc(C)nc(Nc2cc3c(c(C4=CCNCCC4)c2)OCC3)n1
A) > 7.00

Q) Read off the recorded pIC50 for CNc1cc(C)nc(Nc2cc3c(c(C4=CCNC(C)CC4)c2C)OCCC3)n1 (single isomer, unassigned) [Compound 385-a]
A) < 5.70

Q) Read off the recorded pIC50 for CNc1cc(Nc2cc3c(c(C4=CCNCCC4)c2F)OCC3)nc(C)c1F
A) > 7.00

Q) Read off the recorded pIC50 for CNc1cc(C)nc(Nc2cc3c(c(C4=CCN(C)CC(O)C4)c2C)OCCC3)n1 (single isomer, unassigned) [Compound 418]
A) > 7.00

Q) Read off the recorded pIC50 for [2H]Cc1cc(NC)nc(Nc2cc3c(c(C4=CCN(C)CCC4)c2)OCO3)n1
A) > 7.00

Q) Read off the recorded pIC50 for CNc1cc(C)nc(Nc2cc3c(c(C4=C[C@H](C)NCCC4)c2F)OCC3)n1
A) > 7.00

Q) Read off the recorded pIC50 for CNc1cc(C)nc(Nc2cc3c(c(C4=CCC(N)CC4)c2)OCCC3)n1 (centres unmarked)
A) 6.30 to 7.00

Q) Read off the recorded pIC50 for CNc1cc(C)nc(Nc2cc3c(c(C4=CCN(C)CC(O)C4)c2C)OCCC3)n1 (single isomer, unassigned) [Compound 419]
A) 5.70 to 6.30

Q) Read off the recorded pIC50 for CNc1nc(Nc2cc3c(c(C4=CCNCCC4)c2F)OCC3)nc(C)c1Cl
A) > 7.00

Q) Read off the recorded pIC50 for CNc1nc(Nc2cc3c(c(C4=CCNCCC4)c2F)OCC3)nc(C)c1C
A) > 7.00

Q) Read off the recorded pIC50 for CNc1cc(C)nc(Nc2cc3c(c(C4=CCNC(C)CC4)c2C)OCC3)n1 (single isomer, unassigned) [Compound 383-a]
A) 5.70 to 6.30

Q) Read off the recorded pIC50 for CNc1cc(C)nc(Nc2cc3c(c(C4=CCNCC(O)C4)c2F)OCO3)n1 (single isomer, unassigned)
A) > 7.00

Q) Read off the recorded pIC50 for CNc1cc(C)nc(Nc2cc3c(c(C4=CC(C)NCCC4)c2F)OCC3)n1 (centres unmarked)
A) > 7.00

Q) Read off the recorded pIC50 for CNc1cc(Nc2cc3c(c(C4=CCNCCC4)c2)OCC3)nc(C)c1F
A) > 7.00

Q) Read off the recorded pIC50 for Cc1cc(NC2COC2)cc(Nc2cc3c(c(C4=CCN(C)CCC4)c2)OCC3)n1
A) 6.30 to 7.00

Q) Read off the recorded pIC50 for CNc1cc(C)nc(Nc2cc3c(c([C@H]4CC[C@H](N)CC4)c2)OCC3)n1
A) < 5.70

Q) Read off the recorded pIC50 for CNc1ccnc(Nc2cc3c(c(C4=CCN(C)CCC4)c2)OCO3)n1
A) 6.30 to 7.00

Q) Read off the recorded pIC50 for CCNc1cc(C)nc(Nc2cc3c(c(C4=CCN(C)CCC4)c2)OCC3)n1
A) > 7.00

Q) Read off the recorded pIC50 for COCCNc1cc(C)nc(Nc2cc3c(c(C4=CCN(C)CCC4)c2)OCC3)n1
A) 6.30 to 7.00

Q) Read off the recorded pIC50 for CNc1cc(C)nc(Nc2c(F)c3c(c(C4=CCN(C)CCC4)c2F)OCC3)n1
A) 6.30 to 7.00

Q) Read off the recorded pIC50 for [2H]C([2H])([2H])Nc1nc(Nc2cc3c(c(C4=CCN(C)CCC4)c2)OCC3)nc(C)c1F
A) 6.30 to 7.00
